test: Biodistribution in B16/F1 melanoma-bearing C57 mice; format: in vivo; conditions: female, C57, mouse, kidneys, iv, total radioactivity, 2 h post-injection, NDP blockade; read-out: Kidneys uptake
Measurement kind: tissue uptake at 2 h
Give me the value, and tack the unit on after it.

Param item = CCCC[C@H](NC(=O)CN1CCN(CC(=O)O)CCN(CC(=O)O)CCN(CC(=O)O)CC1)C(=O)N[C@H]1CC(=O)NCCCC[C@@H](C(N)=O)NC(=O)[C@H](Cc2c[nH]c3ccccc23)NC(=O)[C@H](CCCNC(=N)N)NC(=O)[C@@H](Cc2ccccc2)NC(=O)[C@H](Cc2c[nH]cn2)NC1=O [^111In-DOTA-Nle-CycMSHhex, metal not drawn] ; retrieve measured tissue uptake at 2 h.
11.6 %ID/g
